Here the recorded MIC is given for each entry.
tested on: Cryptococcus neoformans; test: Antifungal activity against Cryptococcus neoformans LA314 assessed as reduction in fungal cell growth incubated for 48 hrs by broth microdilution method; type: functional; conditions: LA314, 48 h

COMPOUND: CC(n1nnnc1CCN1CCN(Cc2ccccc2)CC1)C(O)(Cn1cncn1)c1ccc(F)cc1F (stereo not given)
MIC: 0.5 to 16 µg/mL

COMPOUND: CC(n1nnnc1CCN1CCN(c2ccc(F)cc2)CC1)C(O)(Cn1cncn1)c1ccc(F)cc1F (stereo not given)
MIC: 0.5 to 16 µg/mL

COMPOUND: CC[C@@H]([C@H](C)O)n1ncn(-c2ccc(N3CCN(c4ccc(OC[C@@H]5CO[C@@](Cn6cncn6)(c6ccc(F)cc6F)C5)cc4)CC3)cc2)c1=O
MIC: 0.12 to 1 µg/mL

COMPOUND: OC(Cn1cncn1)(Cn1nnc(CCN2CCN(c3ccccc3Cl)CC2)n1)c1ccc(F)cc1F (stereo not given)
MIC: 1 to 16 µg/mL

COMPOUND: CC(n1nnnc1CCN1CCN(c2ccccc2)CC1)C(O)(Cn1cncn1)c1ccc(F)cc1F (stereo not given)
MIC: 0.5 to 16 µg/mL

---

Here the recorded MIC is given for each entry.
tested on: Candida tropicalis; test: Antifungal activity against Candida tropicalis assessed as reduction in fungal cell growth incubated for 48 hrs by broth microdilution method; type: functional
OUTCOME_MEASURE: MIC

COMPOUND: C[C@H](n1nnnc1CCN1CCN(c2ccccc2Cl)CC1)[C@](O)(Cn1cncn1)c1ccc(F)cc1F
TARGET_OR_SYSTEM: Candida tropicalis
REPORTED: 0.12 to 16 µg/mL
--
COMPOUND: COc1ccc(N2CCN(CCc3nnnn3C(C)C(O)(Cn3cncn3)c3ccc(F)cc3F)CC2)cc1 (configuration not stated)
TARGET_OR_SYSTEM: Candida tropicalis
REPORTED: 0.5 to 16 µg/mL
--
COMPOUND: OC(Cn1cncn1)(Cn1nnnc1CCN1CCN(c2ccc(Cl)cc2)CC1)c1ccc(F)cc1F (configuration not stated)
TARGET_OR_SYSTEM: Candida tropicalis
REPORTED: 0.5 to 16 µg/mL
--
COMPOUND: CC(n1nnnc1CCN1CCN(c2ccc(F)cc2)CC1)C(O)(Cn1cncn1)c1ccc(F)cc1F (configuration not stated)
TARGET_OR_SYSTEM: Candida tropicalis
REPORTED: 0.5 to 16 µg/mL
--
COMPOUND: C[C@H](n1nnnc1CCN1CCN(c2cccc(Cl)c2)CC1)[C@](O)(Cn1cncn1)c1ccc(F)cc1F
TARGET_OR_SYSTEM: Candida tropicalis
REPORTED: 0.12 to 16 µg/mL
--
COMPOUND: COc1ccc(N2CCN(CCc3nnn([C@@H](C)[C@](O)(Cn4cncn4)c4ccc(F)cc4F)n3)CC2)cc1
TARGET_OR_SYSTEM: Candida tropicalis
REPORTED: 0.25 to 16 µg/mL
--
COMPOUND: CCCCOc1ccccc1N1CCN(CCc2nnn([C@@H](C)[C@](O)(Cn3cncn3)c3ccc(F)cc3F)n2)CC1
TARGET_OR_SYSTEM: Candida tropicalis
REPORTED: 0.25 to 16 µg/mL
--
COMPOUND: C[C@H](n1nnc(CCN2CCN(c3ccccc3Cl)CC2)n1)[C@](O)(Cn1cncn1)c1ccc(F)cc1F
TARGET_OR_SYSTEM: Candida tropicalis
REPORTED: 0.25 to 16 µg/mL
--
COMPOUND: CC(n1nnc(CCN2CCN(c3ccc(F)cc3)CC2)n1)C(O)(Cn1cncn1)c1ccc(F)cc1F (configuration not stated)
TARGET_OR_SYSTEM: Candida tropicalis
REPORTED: 1 to 16 µg/mL
--
COMPOUND: C[C@H](n1nnnc1CCN1CCN(c2c(Cl)cccc2Cl)CC1)[C@](O)(Cn1cncn1)c1ccc(F)cc1F
TARGET_OR_SYSTEM: Candida tropicalis
REPORTED: 0.12 to 16 µg/mL
--
COMPOUND: CCCCOc1ccccc1N1CCN(CCc2nnnn2[C@@H](C)[C@](O)(Cn2cncn2)c2ccc(F)cc2F)CC1
TARGET_OR_SYSTEM: Candida tropicalis
REPORTED: 0.12 to 16 µg/mL
--
COMPOUND: OC(Cn1cncn1)(Cn1nnc(CCN2CCN(C(c3ccccc3)c3ccccc3)CC2)n1)c1ccc(F)cc1F (configuration not stated)
TARGET_OR_SYSTEM: Candida tropicalis
REPORTED: 1 to 16 µg/mL
--
COMPOUND: OC(Cn1cncn1)(Cn1nnnc1CCN1CCN(c2ccccn2)CC1)c1ccc(F)cc1F (configuration not stated)
TARGET_OR_SYSTEM: Candida tropicalis
REPORTED: 0.5 to 16 µg/mL
--
COMPOUND: C[C@H](n1nnc(CCN2CCN(c3cccc(C(F)(F)F)c3)CC2)n1)[C@](O)(Cn1cncn1)c1ccc(F)cc1F
TARGET_OR_SYSTEM: Candida tropicalis
REPORTED: 0.25 to 16 µg/mL
--
COMPOUND: OC(Cn1cncn1)(Cn1nnnc1CCN1CCN(c2ccc(F)cc2)CC1)c1ccc(F)cc1F (configuration not stated)
TARGET_OR_SYSTEM: Candida tropicalis
REPORTED: 0.5 to 16 µg/mL
--
COMPOUND: C[C@H](n1nnc(CCN2CCN(c3ccc(F)cc3)CC2)n1)[C@](O)(Cn1cncn1)c1ccc(F)cc1F
TARGET_OR_SYSTEM: Candida tropicalis
REPORTED: 0.25 to 16 µg/mL
--
COMPOUND: OC(Cn1cncn1)(Cn1nnc(CCN2CCN(c3ccccc3)CC2)n1)c1ccc(F)cc1F (configuration not stated)
TARGET_OR_SYSTEM: Candida tropicalis
REPORTED: 1 to 16 µg/mL
